assay: small-molecule microarray binders of probe aLefty2, primary screen, biochemical, biotinylated probe, 635/667 nm fluorescence (AID 1094); conditions: higher = more signal;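 note: score merges spot fluorescence near 667 nm with spot signal-to-noise ratio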
// label = met if composite z-score is not less than 0.04, otherwise not met

molecule | discrete.label
C=C(CCCC)/C(=C/C[C@@H](OC(=O)c1ccncc1)c1cccc(OCCO)c1)c1cnc2ccccc2c1 | not met
COCCCNC(=O)[C@@]1(Sc2ccc(C)cc2)CC(=O)N(Cc2cc(C(F)(F)F)cc(C(F)(F)F)c2)[C@@H]1c1ccc(CO)cc1 | not met

INPUT: Confirm if composite z-score reported for the molecule C=C1C2CC3C(=C4C(CO[C@@H]4[C@H]4CCCN4S(=O)(=O)c4ccccc4[N+](=O)[O-])C4C(=O)N(C)C(=O)C34)CC2C(=O)N1C (some centres not stated) is 0.04 or above.
OUTPUT: not met

INPUT: Confirm if composite z-score reported for the molecule CC[C@@H]1[C@H]2C3C(=O)N(CC)C(=O)C3CC(=O)[C@H]2[C@H](c2ccc(C)cc2)N1S(=O)(=O)c1ccc(C)cc1 (some centres not stated) is 0.04 or above.
OUTPUT: not met

INPUT: Confirm if composite z-score reported for the molecule "CC(C)C[C@@H]1NC(=O)[C@H]2C[C@@H](C(=O)NCCCCCC[N+](C)(C)C)[C@@H](c3cccc(OCCO)c3)N2C1=O" is 0.04 or above.
OUTPUT: not met

INPUT: Confirm if composite z-score reported for the molecule "C=CCNC(=O)[C@H]1[C@@H]2C(=O)O[C@@H](c3ccccc3)[C@@H](c3ccccc3)N2[C@@H](c2ccccc2OCCO)[C@]12C(=O)N(C(=O)OCCOC)c1ccc(C#CC3=CCCCC3)cc12" is 0.04 or above.
OUTPUT: met

INPUT: Confirm if composite z-score reported for the molecule "CC(C)(C)OC(=O)CC[C@]1(C(=O)O)N=C(c2ccc(OCCCO)cc2)O[C@H]1c1ccccc1" is 0.04 or above.
OUTPUT: not met
